Tested on: HEK-293T
Test: Multiplex assay against HEK293T
Format: toxicity, cell-based
Conditions: human, 48 h, 1 µM, compound concentration 1 uM, replicate 1
Binary call on Population Mitochondria Different-Phenotype (%): 1 from 20% upward, 0 beneath that.

{"compound": "N#Cc1c(N)nc(SCc2csc(-c3ccc(Cl)cc3)n2)c(C#N)c1-c1ccc(OCCO)cc1 [CAPADENOSON]", "assigned_category": 1}
{"compound": "Oc1c(CN2CCN(c3ccccn3)CC2)cc(Cl)c2cccnc12", "assigned_category": 1}
{"compound": "Cc1ccc(-c2ccc(F)cc2COc2ccc(CCC(=O)O)cc2)cc1", "assigned_category": 0}
{"compound": "CCCC(CCC)C(=O)O [VALPROIC ACID]", "assigned_category": 0}
{"compound": "O=C(O)c1cc2ccccc2c(Cc2c(O)c(C(=O)O)cc3ccccc23)c1O [PAMOIC ACID]", "assigned_category": 0}
{"compound": "Cl.Clc1ccc2nsnc2c1NC1=NCCN1 [TIZANIDINE HYDROCHLORIDE]", "assigned_category": 0}
{"compound": "Cc1nc2ccc(Oc3ccc(F)cc3)cc2c(=O)n1C[C@H]1CCCN(C(C)C)C1.Cl", "assigned_category": 1}
{"compound": "CN1CCN(c2nc3cc(C(F)(F)F)ccc3n3cccc23)CC1.O=C(O)/C=C\\C(=O)O.O=C(O)/C=C\\C(=O)O", "assigned_category": 0}
{"compound": "CSc1ccccc1N1CCN(CCCCCC(=O)NC2CCCc3ccccc32)CC1.Cl (centres undefined)", "assigned_category": 1}
{"compound": "O=S(=O)(c1ccccc1)c1cnc2c(N3CCNCC3)cccc2c1 [INTEPIRDINE]", "assigned_category": 1}
{"compound": "C[C@H](NC(=O)c1c(C(F)F)nn(C)c1Oc1cccc(C(F)(F)F)c1)c1ccc(C(=O)O)cc1 [PALUPIPRANT]", "assigned_category": 0}
{"compound": "O=C1COc2nccc(-c3ccccc3F)c2CN1Cc1cc(C(F)(F)F)cc(C(F)(F)F)c1", "assigned_category": 1}
{"compound": "c1cc(OCCCN2CCCCC2)ccc1CN1CCCCC1 [JNJ-5207852]", "assigned_category": 0}
{"compound": "COc1ccc2c(c1)C(C(=O)N(Cc1ccc(N(C)C)cc1)c1ccc(C(C)C)cc1)CCC2.Cl (centres undefined)", "assigned_category": 0}
{"compound": "C[C@@H]1C[C@H]2[C@@H]3CCC4=CC(=O)C=C[C@]4(C)[C@@]3(F)[C@@H](O)C[C@]2(C)[C@@]1(O)C(=O)CO [DEXAMETHASONE]", "assigned_category": 0}
{"compound": "CCNC1(C(N)=O)CCN(c2ncnc3c2nc(-c2ccccc2Cl)n3-c2ccc(Cl)cc2)CC1 [OTENABANT]", "assigned_category": 1}
{"compound": "Cc1ccc(/C(=C\\CN2CCCC2)c2ccccn2)cc1 [TRIPROLIDINE]", "assigned_category": 0}
{"compound": "CN1CCN2c3ncccc3Cc3ccccc3C2C1 (centres undefined) [MIRTAZAPINE]", "assigned_category": 0}
